Data provenance: ChEMBL document CHEMBL3885881

Organism: Rattus norvegicus
procedure.details: DrugMatrix - Regimen: Daily Repeat
Type: toxicity, organism-based, Sprague-Dawley
Design: regimen Daily Repeat, gender Male, age 6-8 weeks
test.settings: in vivo, po, 0 mg/kg, 72 h, tissue Blood, route oral GAVAGE, dose level Control, time 3 day, vehicle .5 % CMC
As shown below, each of these molecules has a reported MEAN CORPUSCULAR VOLUME value.
readout.kind: MEAN CORPUSCULAR VOLUME

INSERT INTO results (molecule, readout_kind, obs_value) VALUES
  ('CNC(=C[N+](=O)[O-])NCCSCc1ccc(CN(C)C)o1', 'MEAN CORPUSCULAR VOLUME', '63.52 fL'),
  ('Clc1ccc2c(c1)C(N1CCNCC1)=Nc1ccccc1O2', 'MEAN CORPUSCULAR VOLUME', '63.05 fL'),
  ('CN1C(=O)COc2c(C(=O)NC3CN4CCC3CC4)cc(Cl)cc21 (stereo unspecified)', 'MEAN CORPUSCULAR VOLUME', '63.27 fL'),
  ('CC[C@@H](CO)NCCN[C@@H](CC)CO', 'MEAN CORPUSCULAR VOLUME', '61.48 fL'),
  ('N=C(N)NC(=O)c1nc(Cl)c(N)nc1N [AMILORIDE]', 'MEAN CORPUSCULAR VOLUME', '61.48 fL'),
  ('O=[N+]([O-])c1ccccc1', 'MEAN CORPUSCULAR VOLUME', '66.25 fL'),
  ('CC(=O)CC(c1ccccc1)c1c(O)c2ccccc2oc1=O (stereo unspecified)', 'MEAN CORPUSCULAR VOLUME', '63.4 fL'),
  ('CN1CCC(=C2c3ccccc3C=Cc3ccccc32)CC1', 'MEAN CORPUSCULAR VOLUME', '64.32 fL'),
  ('OC(CCN1CCCCC1)(c1ccccc1)C1CCCCC1 (stereo unspecified)', 'MEAN CORPUSCULAR VOLUME', '63.88 fL'),
  ('CC(C)[C@H]1CC[C@H](C(=O)N[C@H](Cc2ccccc2)C(=O)O)CC1 [NATEGLINIDE]', 'MEAN CORPUSCULAR VOLUME', '62.77 fL'),
  ('CO[C@H]1/C=C/O[C@@]2(C)Oc3c(C)c(O)c4c(c3C2=O)C2=NC3(CCN(CC(C)C)CC3)NC2=C(NC(=O)/C(C)=C\C=C\[C@H](C)[C@H](O)[C@@H](C)[C@@H](O)[C@@H](C)[C@H](OC(C)=O)[C@@H]1C)C4=O', 'MEAN CORPUSCULAR VOLUME', '63.52 fL'),
  ('C[C@]1(Cn2ccnn2)[C@H](C(=O)O)N2C(=O)C[C@H]2S1(=O)=O', 'MEAN CORPUSCULAR VOLUME', '63.47 fL'),
  ('Cc1onc(-c2ccccc2)c1-c1ccc(S(N)(=O)=O)cc1', 'MEAN CORPUSCULAR VOLUME', '63.66 fL'),
  ('O=C1CCC(N2C(=O)c3ccccc3C2=O)C(=O)N1 (stereo unspecified) [THALIDOMIDE]', 'MEAN CORPUSCULAR VOLUME', '64.22 fL'),
  ('C[C@](O)(CS(=O)(=O)c1ccc(F)cc1)C(=O)Nc1ccc(C#N)c(C(F)(F)F)c1 [(R)-BICALUTAMIDE]', 'MEAN CORPUSCULAR VOLUME', '62.48 fL'),
  ('C#C[C@]1(O)CC[C@H]2[C@@H]3CCc4cc(OC)ccc4[C@H]3CC[C@@]21C', 'MEAN CORPUSCULAR VOLUME', '63.52 fL');

---

As shown below, each of these compounds has a reported POTASSIUM value.
Species on record: Rattus norvegicus
procedure.details: DrugMatrix - Regimen: Daily Repeat
Type: toxicity, organism-based, Sprague-Dawley
Design: regimen Daily Repeat, gender Male, age 6-8 weeks
test.settings: in vivo, po, 1500 mg/kg, 120 h, tissue Plasma, route oral GAVAGE, dose level High, time 5 day, vehicle .5 % CMC
readout.kind: POTASSIUM

INSERT INTO measurements (compound, obs_value) VALUES
  ('O=C(N[C@H](CO)[C@H](O)c1ccc([N+](=O)[O-])cc1)C(Cl)Cl [CHLORAMPHENICOL]', '9.76 MEQ/L'),
  ('NC(=O)c1cnccn1 [PYRAZINAMIDE]', '5.72 MEQ/L'),
  ('Cc1cc(=O)n(-c2ccccc2)n1C [ANTIPYRINE]', '7.71 MEQ/L'),
  ('Cc1ccc(S(=O)(=O)NC(=O)NN2CC3CCCC3C2)cc1 (configuration not stated) [GLICLAZIDE]', '6.21 MEQ/L'),
  ('C[C@]1(Cn2ccnn2)[C@H](C(=O)O)N2C(=O)C[C@H]2S1(=O)=O [TAZOBACTAM]', '6.45 MEQ/L'),
  ('CNC(=C[N+](=O)[O-])NCCSCc1ccc(CN(C)C)o1 [RANITIDINE]', '6.43 MEQ/L'),
  ('CO[C@H]1/C=C/O[C@@]2(C)Oc3c(C)c(O)c4c(c3C2=O)C2=NC3(CCN(CC(C)C)CC3)NC2=C(NC(=O)/C(C)=C\C=C\[C@H](C)[C@H](O)[C@@H](C)[C@@H](O)[C@@H](C)[C@H](OC(C)=O)[C@@H]1C)C4=O [RIFABUTIN]', '5.77 MEQ/L');

---

Species on record: Rattus norvegicus
procedure.details: DrugMatrix - Regimen: Daily Repeat
Assay type: toxicity, organism-based, Sprague-Dawley
Set-up: regimen Daily Repeat, gender Male, age 6-8 weeks
test.settings: in vivo, po, 0 mg/kg, 120 h, tissue Blood, route oral GAVAGE, dose level Control, time 5 day, vehicle .5 % CMC
readout.kind: MEAN CORPUSCULAR VOLUME

INSERT INTO measurements (molecule, obs_value) VALUES
  ('N=C(N)NC(=O)c1nc(Cl)c(N)nc1N [AMILORIDE]', '60.47 fL'),
  ('C[C@]1(Cn2ccnn2)[C@H](C(=O)O)N2C(=O)C[C@H]2S1(=O)=O', '61.92 fL'),
  ('O=[N+]([O-])c1ccccc1', '65.9 fL'),
  ('CO[C@H]1/C=C/O[C@@]2(C)Oc3c(C)c(O)c4c(c3C2=O)C2=NC3(CCN(CC(C)C)CC3)NC2=C(NC(=O)/C(C)=C\C=C\[C@H](C)[C@H](O)[C@@H](C)[C@@H](O)[C@@H](C)[C@H](OC(C)=O)[C@@H]1C)C4=O', '61.82 fL'),
  ('Cc1onc(-c2ccccc2)c1-c1ccc(S(N)(=O)=O)cc1', '63.88 fL'),
  ('CC(C)[C@H]1CC[C@H](C(=O)N[C@H](Cc2ccccc2)C(=O)O)CC1 [NATEGLINIDE]', '62.58 fL'),
  ('CC(=O)CC(c1ccccc1)c1c(O)c2ccccc2oc1=O (stereo not drawn)', '63.47 fL'),
  ('C#C[C@]1(O)CC[C@H]2[C@@H]3CCc4cc(OC)ccc4[C@H]3CC[C@@]21C', '61.82 fL');

---

As shown below, each of these compounds has a reported ABSOLUTE LYMPHOCYTE value.
Species on record: Rattus norvegicus
procedure.details: DrugMatrix - Regimen: Daily Repeat
Type: toxicity, organism-based, Sprague-Dawley
Parameters: regimen Daily Repeat, gender Male, age 6-8 weeks
test.settings: in vivo, po, 0 mg/kg, 72 h, tissue Blood, route oral GAVAGE, dose level Control, time 3 day, […]
readout.kind: ABSOLUTE LYMPHOCYTE (CELLS/uL)

INSERT INTO measurements (compound, obs_value) VALUES
  ('Cc1cccc(Nc2ccncc2S(=O)(=O)NC(=O)NC(C)C)c1 [TORSEMIDE]', 8545.5),
  ('C[C@H]1O[C@@H](O[C@H]2[C@@H](O)C[C@H](O[C@H]3[C@@H](O)C[C@H](O[C@H]4CC[C@@]5(C)[C@H](CC[C@@H]6[C@@H]5CC[C@]5(C)[C@@H](C7=CC(=O)OC7)CC[C@]65O)C4)O[C@@H]3C)O[C@@H]2C)C[C@H](O)[C@@H]1O', 10069.5),
  ('CC(=O)Nc1cccc(O)c1', 14687.67),
  ('CC(C)Cc1ccc(C(C)C(=O)O)cc1 (stereo unspecified)', 7601),
  ('COCCOC(=O)C1=C(C)NC(C)=C(C(=O)OC(C)C)C1c1cccc([N+](=O)[O-])c1 (stereo unspecified)', 9244.83),
  ('CC/C(=C(/CC)c1ccc(O)cc1)c1ccc(O)cc1', 11144.67),
  ('CC(=O)Nc1ccc(O)cc1', 6275.67),
  ('C[C@]12CC[C@@H]3c4ccc(O)cc4CC[C@H]3[C@@H]1CC[C@@H]2O', 8545.5),
  ('CC(C)(Oc1ccc(C2CCCc3ccccc32)cc1)C(=O)O (stereo unspecified)', 11079),
  ('CCOC(=O)C(C)(C)Oc1ccc(Cl)cc1 [CLOFIBRATE]', 6295.33),
  ('COc1ccc2[nH]c([S+]([O-])Cc3ncc(C)c(OC)c3C)nc2c1 (stereo unspecified)', 12761.5),
  ('CCCCCCCCc1ccc(O)cc1', 11091.17),
  ('S=C=Nc1cccc2ccccc12 [1-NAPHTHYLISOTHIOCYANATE]', 9600.67),
  ('CCOC(=O)C1=C(C)NC(C)=C(C(=O)OC)C1c1cccc([N+](=O)[O-])c1 (stereo unspecified)', 9244.83),
  ('O=C(O)Cc1ccccc1Nc1c(Cl)cccc1Cl', 8493);
